Recorded melting point for the following compounds

Worked set:
[[record]]
compound = "CCCCC(CC)C(=O)NCCCCCCCCCCCOCC(O)CNCCO (stereo not given)"
endpoint_result = "76.1 to 77.3 °C"

[[record]]
compound = "CC(O)=C(C#N)C(=O)c1ccc(F)cc1"
endpoint_result = "65 to 67 °C"

[[record]]
compound = "O=S1(=O)NC(C2CCCCC2)Nc2ccc(-c3ccccc3F)cc21 (stereo not given)"
endpoint_result = "249 to 250 °C"

[[record]]
compound = "O=C(O)c1ncn2c1[C@@H]1CCN1C(=O)c1c(Cl)cccc1-2"
endpoint_result = "244 to 245 °C"

[[record]]
compound = "COc1cc(C=O)c(C=O)cc1OCCCl"
endpoint_result = "113 to 114 °C"

[[record]]
compound = "COC(=O)C(C)Oc1ccc(Oc2ncc(Cl)cc2N)cc1 (stereo not given)"
endpoint_result = "92 to 94 °C"

[[record]]
compound = "O=C(c1ccc(Cl)c(Cl)c1)N1CCCC(c2cc(Br)cc(Br)c2)=N1"
endpoint_result = "179 to 182 °C"

[[record]]
compound = "Cc1oc(-c2ccccc2)nc1CCOc1ccc(C[C@@H](C(=O)O)N2CCN(S(=O)(=O)c3ccc(F)cc3)CC2)cc1"
endpoint_result = "198 to 200 °C"

[[record]]
compound = "CC(C)(C)OC(=O)NCCNc1n[nH]c2ncnc(Nc3cccc(Cl)c3)c12"
endpoint_result = "206 to 208 °C"


Consider the additional compound presented here.
[in] Give its melting point value. Item: O=C(O)C(Cc1ccccc1)C(=O)NC(CS)Cc1ccccc1 (stereo not given)
[out] 65 to 70 °C

###

endpoint.name: melting point

Worked set:
[[record]]
molecule = "CC(C)c1nc2c([nH]1)c(=O)[nH]c(=O)n2Cc1cccc(Cl)c1"
endpoint_result = "319 to 321 °C"

[[record]]
molecule = "COc1ccc2c(c1)C(c1ccncc1)Nc1cc(Cl)ccc1O2 (stereo not given)"
endpoint_result = "186 to 188 °C"

[[record]]
molecule = "Cc1nc(Cl)c(C#N)c(C)c1-c1ccccc1"
endpoint_result = "118 to 123 °C"


[in] Give its melting point value. Item: O=C(Nc1cccc2c1C(=O)c1c-2n[nH]c1-c1ccc(N2CCC(N3CCCC3)CC2)cc1)NN1CCOCC1
[out] 247 °C

[in] How about this molecule: COC1=C(OC)C(=O)C2=C(CCC(CCOc3ccc(Cl)cc3)CC2)C1=O
[out] 117 to 119 °C

[in] How about this molecule: O=C(NCC12CC3CC(CC(C3)C1)C2)c1c(Cl)ccc2nc(N3CCC[C@H](NCCc4nn[nH]n4)C3)ccc12
[out] 168 to 172 °C

[in] How about this molecule: COc1ccc2[nH]c(CC(C)C)c(/C=C/C(=O)c3ccncc3)c2c1
[out] 217 to 218 °C

###

endpoint.name: melting point

Worked set:
[[record]]
compound = "CC1(C)CC(=O)C2=C(C1)NC1=C(C(=O)CC(C)(C)C1)C2c1cccc(Oc2ncccn2)c1"
endpoint_result = "220 to 221 °C"

[[record]]
compound = "CNC(=C[N+](=O)[O-])NCCCCCCCCCCCCNC(=C[N+](=O)[O-])NCCSCc1ccc(CN(C)C)o1"
endpoint_result = "78 to 80 °C"

[[record]]
compound = "Clc1ccc(CN2CCOCC2)c(N=C2CCCCN2)c1"
endpoint_result = "121 to 122 °C"

[[record]]
compound = "Cc1nc2c(c(=O)[nH]1)-c1ccc(Cl)cc1C(c1ccccc1Cl)=NC2"
endpoint_result = "277 to 279 °C"

[[record]]
compound = "COC(=O)C1=C(C)NC(C)=C(C(=O)OCCN2CCC(c3ccccc3)CC2)C1c1cccc([N+](=O)[O-])c1 (centres undefined)"
endpoint_result = "159 to 160 °C"


[in] Give its melting point value. Item: O=C1NC(=O)C2(C=COc3c2ccc2ncccc32)N1 (centres undefined)
[out] 330 °C

[in] How about this compound: O=C(O)c1cc(C(=O)O)cc(N2C(=O)C=CC2=O)c1
[out] > 300 °C

[in] How about this compound: O=C(c1ccc(Cl)cc1)N1CCCC2=C1CCc1cc(Cl)ccc12
[out] 189 to 191 °C

###

Recorded melting point for the following compounds

Worked set:
[[record]]
compound = "Cc1ccc(C(=O)c2ccc(C)cc2F)c(F)c1"
endpoint_name = "melting point"
endpoint_result = "84 to 85.5 °C"

[[record]]
compound = "CCCc1cc(F)c(C(=O)O)c([N+](=O)[O-])c1O"
endpoint_name = "melting point"
endpoint_result = "128 to 129 °C"

[[record]]
compound = "CC(C)(C)[Si](C)(C)OC1CC(=O)c2cc(F)ccc21 (stereo not drawn)"
endpoint_name = "melting point"
endpoint_result = "56 to 58 °C"


[in] Give its melting point value. Item: COC(CC[C@](C)(O)[C@@H](/C=C\C=C\c1ccccc1)Sc1ccccc1)OC (racemic)
[out] 59.5 to 61 °C

[in] How about this compound: CCN1CC(=O)N(CC)c2cc(Nc3ncc(Cl)c(Nc4ccc(OC)cc4-n4cccn4)n3)c(OC)cc2C1
[out] 97 to 100 °C

[in] How about this compound: C=Cc1nc2cc(-c3ccc(C#N)cc3)ccc2o1
[out] 143 to 144 °C

[in] How about this compound: [N-]=[N+]=NCc1cc(C(F)(F)F)cc(C(F)(F)F)c1
[out] 30 to 32 °C

[in] How about this compound: CCC(CC)n1cc(Cl)nc(N2CCc3cc(OC)cc(C)c32)c1=O
[out] 164 to 165 °C

[in] How about this compound: COc1ccc(CN2CCC(c3cn(Cc4ccoc4)c4cc(F)ccc34)CC2)cc1C(=O)O
[out] 228 to 229 °C

[in] How about this compound: O=[N+]([O-])CS(=O)(=O)c1ccccc1F
[out] 59 °C

[in] How about this compound: Cc1nc2cc(OCCCCl)ccc2s1
[out] 63 to 65 °C

[in] How about this compound: O=C1CCC(N2C(=O)c3ccc(CNC(=O)c4cc5ccccc5s4)cc3C2=O)C(=O)N1 (stereo not drawn)
[out] 318 to 320 °C

[in] How about this compound: CCOC(=O)c1c(C(F)(F)F)nc(C(F)(F)F)c(C(=O)OC)c1N=[N+]=[N-]
[out] 46 to 47 °C

[in] How about this compound: COC(=O)c1ccc2c(c1)C(C#N)=CCC2
[out] 73 to 75 °C

[in] How about this compound: COCNC(=O)c1snc(Cl)c1Cl
[out] 79 to 87 °C

[in] How about this compound: O=C(O)CCCCCCCCCCCOc1ccccc1OCCCC(=O)O
[out] 105 °C

[in] How about this compound: O=C(NCCCN1CCN(c2ccccc2OCC(F)(F)F)CC1)c1csc2c(=O)cc(-c3ccccc3)oc12
[out] 152 to 158 °C

[in] How about this compound: CCn1c(-c2c(Cl)cccc2Cl)nc(-c2ccnc(Cl)c2)c1-c1ccc(Cl)cc1
[out] 187 to 189 °C

###

endpoint.name: melting point

Worked set:
[[record]]
molecule = "Oc1cc(-c2ccc(Cl)cc2Cl)n[nH]1"
endpoint_result = "198 °C"

[[record]]
molecule = "O=C(NC1CCCCC1)NS(=O)(=O)c1ccc(CCNC(=O)N2CC3CCCCC3C2=O)cc1 (configuration not stated)"
endpoint_result = "139 to 140 °C"

[[record]]
molecule = "COC(=O)c1ccc(OCCN2C(=O)c3ccccc3C2=O)cc1"
endpoint_result = "129 to 130 °C"

[[record]]
molecule = "CCCOc1cc(-n2c(=O)cc(C(F)(F)F)n(C)c2=O)c(F)cc1Br"
endpoint_result = "119 °C"

[[record]]
molecule = "COC(=O)c1ccc(C(=O)N2CCN(c3ncccc3NCC(C)C)CC2)nc1"
endpoint_result = "82 to 84 °C"

[[record]]
molecule = "CCCC(CC(=O)Nc1ccccc1)(OC)OC"
endpoint_result = "88 °C"


Consider the additional molecule presented here.
[in] Give its melting point value. Item: O=C1NC(c2ccccc2)(c2ccccc2)C(=O)N1COP(=O)(OCc1ccccc1)OCc1ccccc1
[out] 119 to 120 °C

###

Recorded melting point for the following compounds

[in] Give its melting point value. Item: CCOC(=O)COc1ccc(C(=O)Nc2ccccc2S(=O)(=O)c2ccccc2-c2nnn[nH]2)cc1
[out] 162 to 163 °C

[in] How about this compound: COc1cc(-c2ccnc(Nc3cccc(OC(F)(F)C(F)F)c3)n2)cc(OC)c1OC
[out] 132 °C

[in] How about this compound: CCOC(=O)CN(c1ccc(N)cc1)S(=O)(=O)c1cccc2ccccc12
[out] 98 to 103 °C

###

endpoint.name: melting point

[[record]]
compound = "CCS(=O)(=O)NC(=O)c1cccc(N)c1"
endpoint_result = "129 to 132 °C"

[[record]]
compound = "CCCCCCCCCCCCCCCCNc1ccc(C(=O)OCC(O)CO)cc1 (stereo not given)"
endpoint_result = "112 °C"

[[record]]
compound = "CC1(C)C(C)(C)C1(Cl)c1ccccn1"
endpoint_result = "100 to 102 °C"

[[record]]
compound = "CC1(C)CON(Cc2c(F)cccc2Cl)C1=O"
endpoint_result = "49 to 51 °C"


[in] Give its melting point value. Item: COC(=O)C1=C(C)NC(C)=C(C(=O)OCCN2CCN(C(c3ccccc3)c3ccccc3)CC2)C1c1cccc(Cl)c1Cl (stereo not given)
[out] 84 to 88 °C

[in] How about this compound: Cc1ccc2cccc(OCc3c(C)ccc(N)c3C)c2n1
[out] 204 to 205 °C

[in] How about this compound: ONCC1(c2ccc(OCc3ccc4ccccc4n3)cc2)CCCC1
[out] 116 to 117 °C

[in] How about this compound: CCCN1CC(C)C=C2c3cccc4c3C(CN4)CC21 (stereo not given)
[out] 135 to 137 °C

[in] How about this compound: CC(=O)OC1CSC(Oc2cncc(-c3cnoc3C)c2)C(OC(C)=O)C1OC(C)=O (stereo not given)
[out] 127 °C

[in] How about this compound: CC(=O)Nc1ccc(S(=O)(=O)c2cc(Br)nc(Br)c2)cc1
[out] 211 °C

[in] How about this compound: O=S1(=O)C(c2ccsc2)=CCC=C1c1ccsc1
[out] 162 to 164 °C

[in] How about this compound: CC(C)(C)OC(=O)N1C(=O)[C@H](O)[C@@H]1C=Cc1ccccc1
[out] 132 to 133 °C
